Listing: N-acyl-derivative in tissue sample, analysis a of selected compounds
Assay: In vivo formation of NAFB1 and NAHFB1 in rat kidney and liver (HPLC-ESI-MS/MS)
Parameters: unit not given here
Details: Kidney; treatment FB1 2 mg/kg BW ip, 5 days
Readout type: N-acyl-derivative in tissue sample, analysis a

[[record]]
compound = "CCCCCCCC/C=C\\CCCCCCCCCCCCCC(=O)N[C@@H](C)[C@@H](O)C[C@H](O)CCCC[C@@H](O)C[C@H](C)C[C@H](O)[C@H](O)[C@H](C)CCCC [HFB1C24:1]"
meas_value = "0,1"

[[record]]
compound = "CCCCCCCCCCCCCCCCCCCCCC(=O)NC(C)C(O)CC(O)CCCCC(O)CC(C)CC(OC(=O)CC(CC(=O)O)C(=O)O)C(OC(=O)CC(CC(=O)O)C(=O)O)C(C)CCCC (stereo not drawn) [FB1C22:0]"
meas_value = "0,9"

[[record]]
compound = "CCCCCCCCCCCCCCCC(=O)NC(C)C(O)CC(O)CCCCC(O)CC(C)CC(OC(=O)CC(CC(=O)O)C(=O)O)C(OC(=O)CC(CC(=O)O)C(=O)O)C(C)CCCC (stereo not drawn) [FB1C16:0]"
meas_value = "12,1"


====

Assay: In vivo formation of NAFB1 and NAHFB1 in rat kidney and liver (HPLC-ESI-MS/MS)
Design: unit not given here
Settings: Kidney; treatment HFB1 1 mg/kg BW ip, 5 days
# maps each entry to its N-acyl-derivative in tissue sample, analysis b
Readout type: N-acyl-derivative in tissue sample, analysis b

[[record]]
molecule = "CCCCCCCC/C=C\\CCCCCCCCCCCCCC(=O)N[C@@H](C)[C@@H](O)C[C@H](O)CCCC[C@@H](O)C[C@H](C)C[C@H](O)[C@H](O)[C@H](C)CCCC"
meas_value = "10,8"

[[record]]
molecule = "CCCCCCCCCCCCCCCCCCCC(=O)N[C@@H](C)[C@@H](O)C[C@H](O)CCCC[C@@H](O)C[C@H](C)C[C@H](O)[C@H](O)[C@H](C)CCCC"
meas_value = "0,6"

[[record]]
molecule = "CCCCCCCCCCCCCCCCCC(=O)N[C@@H](C)[C@@H](O)C[C@H](O)CCCC[C@@H](O)C[C@H](C)C[C@H](O)[C@H](O)[C@H](C)CCCC"
meas_value = "1,8"

[[record]]
molecule = "CCCCCCCCCCCCCCCC(=O)N[C@@H](C)[C@@H](O)C[C@H](O)CCCC[C@@H](O)C[C@H](C)C[C@H](O)[C@H](O)[C@H](C)CCCC"
meas_value = "37,3"

[[record]]
molecule = "CCCCCCCCCCCCCCCCCCCC(=O)NC(C)C(O)CC(O)CCCCC(O)CC(C)CC(OC(=O)CC(CC(=O)O)C(=O)O)C(OC(=O)CC(CC(=O)O)C(=O)O)C(C)CCCC (centres unmarked)"
meas_value = "0,0"


====

Test: In vivo formation of NAFB1 and NAHFB1 in rat kidney and liver (HPLC-ESI-MS/MS)
Design: unit not given here
Settings: Liver; treatment FB1 2 mg/kg BW ip, 5 days
Readout type: N-acyl-derivative in tissue sample, mean

[[record]]
compound = "CCCCCCCCCCCCCCCCCCCCCCCC(=O)NC(C)C(O)CC(O)CCCCC(O)CC(C)CC(OC(=O)CC(CC(=O)O)C(=O)O)C(OC(=O)CC(CC(=O)O)C(=O)O)C(C)CCCC (stereo not shown) [FB1C24:0]"
meas_value = "13,3"

[[record]]
compound = "CCCCCCCCCCCCCCCC(=O)NC(C)C(O)CC(O)CCCCC(O)CC(C)CC(OC(=O)CC(CC(=O)O)C(=O)O)C(OC(=O)CC(CC(=O)O)C(=O)O)C(C)CCCC (stereo not shown) [FB1C16:0]"
meas_value = "7,1"

[[record]]
compound = "CCCCCCCC/C=C\\CCCCCCCCCCCCCC(=O)N[C@@H](C)[C@@H](O)C[C@H](O)CCCC[C@@H](O)C[C@H](C)C[C@H](O)[C@H](O)[C@H](C)CCCC [HFB1C24:1]"
meas_value = "0,2"

[[record]]
compound = "CCCCCCCCCCCCCCCCCCCCCCCC(=O)N[C@@H](C)[C@@H](O)C[C@H](O)CCCC[C@@H](O)C[C@H](C)C[C@H](O)[C@H](O)[C@H](C)CCCC [HFB1C24:0]"
meas_value = "0,0"

[[record]]
compound = "CCCCCCCCCCCCCCCCCC(=O)N[C@@H](C)[C@@H](O)C[C@H](O)CCCC[C@@H](O)C[C@H](C)C[C@H](O)[C@H](O)[C@H](C)CCCC [HFB1C18:0]"
meas_value = "0,0"

[[record]]
compound = "CCCCCCCCCCCCCCCCCCCCCC(=O)NC(C)C(O)CC(O)CCCCC(O)CC(C)CC(OC(=O)CC(CC(=O)O)C(=O)O)C(OC(=O)CC(CC(=O)O)C(=O)O)C(C)CCCC (stereo not shown) [FB1C22:0]"
meas_value = "3,8"

[[record]]
compound = "CCCCCCCCCCCCCCCCCCCC(=O)NC(C)C(O)CC(O)CCCCC(O)CC(C)CC(OC(=O)CC(CC(=O)O)C(=O)O)C(OC(=O)CC(CC(=O)O)C(=O)O)C(C)CCCC (stereo not shown) [FB1C20:0]"
meas_value = "0,0"

